- assay.text: Intravenous pharmacokinetics in mouse
- Format: in vivo, BALB/c mice
- run.conditions: female, BALB/c, plasma, 10 umol/kg, IV dose 10 μmol/kg, mean values
- From the text: The pharmacokinetics of the test compound following single intravenous (IV) or oral (PO) doses were examined in • female BALB/c mice (average weight: 25 g) • male Wistar(Han) rats (average weight: 260 g) • male and female Göttingen Minipigs (average weight: 24 kg) • male beagle dogs (average weight: 15 kg) All non-rodent species were fasted overnight prior to dosing, while mice and rats had food and water available ad libitum. […]
endpoint.label: clearance (mL/min/kg)
Value expressed in mL/min/kg; do not type the unit.

GET /value?item= CO[C@H]1COCC[C@H]1NC1CCN(C(=O)c2ncnc(NC[C@H]3CCC[C@@H](c4ccc(C)cc4)O3)c2C)CC1 &field=clearance returns 86

---

- assay.text: Intravenous pharmacokinetics in rat
- Format: in vivo, Wistar(Han) rats
- run.conditions: male, Wistar(Han), plasma, 5 umol/kg, IV dose 5 μmol/kg, mean values
- Excerpt: The pharmacokinetics of the test compound following single intravenous (IV) or oral (PO) doses were examined in • female BALB/c mice (average weight: 25 g) • male Wistar(Han) rats (average weight: 260 g) • male and female Göttingen Minipigs (average weight: 24 kg) • male beagle dogs (average weight: 15 kg) All non-rodent species were fasted overnight prior to dosing, while mice and rats had food and water available ad libitum. […]
endpoint.label: AUC(0-inf) (µM·h)
Unit µM·h implied. Number only.

So, CO[C@H]1COCC[C@H]1NC1CCN(C(=O)c2ncnc(NC[C@H]3CCC[C@@H](c4ccc(C)cc4)O3)c2C)CC1 ? Its AUC(0-inf) was 1.49

---

- assay.text: Solubility, automated shake flask method with UV quantitation
- Type: physicochemical
- run.conditions: thermodynamic from solid; Water, 6 h, room temperature
endpoint.label: solubility at 6 h

So for CO[C@H]1COCC[C@H]1NC1CCN(C(=O)c2ncnc(NC[C@H]3CCC[C@@H](c4ccc(C)cc4)O3)c2C)CC1.O=C(O)CC(O)(CC(=O)O)C(=O)O [citrate salt 1] , the logged solubility at 6 h turned out to be > 1000 µg/mL

---

- assay.text: Oral pharmacokinetics in dog
- Format: in vivo, beagle dogs
- run.conditions: male, beagle, plasma, 5 umol/kg, oral dose 5 μmol/kg, mean values
endpoint.label: AUC(0-inf) (µM·h)
The reply should contain only the number, in µM·h.

Form: molecule = CO[C@H]1COCC[C@H]1NC1CCN(C(=O)c2ncnc(NC[C@H]3CCC[C@@H](c4ccc(C)cc4)O3)c2C)CC1 ; AUC(0-inf) = 1.5

---

- assay.text: Oral pharmacokinetics in mouse
- Assay type: in vivo, BALB/c mice
- run.conditions: female, BALB/c, plasma, 20 umol/kg, oral dose 20 μmol/kg, mean values
endpoint.label: AUC(0-inf) (µM·h)
State the answer as a number, implicitly in µM·h.

The compound CO[C@H]1COCC[C@H]1NC1CCN(C(=O)c2ncnc(NC[C@H]3CCC[C@@H](c4ccc(C)cc4)O3)c2C)CC1 [compound I] showed AUC(0-inf) equal to 3.16

---

- assay.text: Solubility, automated shake flask method with UV quantitation
- Format: physicochemical
- run.conditions: Sörensen buffer, aqueous buffer, thermodynamic from solid; Sörensen pH 10, 2 h, room temperature
endpoint.label: solubility at 2 h

// recorded solubility at 2 h for CO[C@H]1COCC[C@H]1NC1CCN(C(=O)c2ncnc(NC[C@H]3CCC[C@@H](c4ccc(C)cc4)O3)c2C)CC1.O=C(O)CC(O)(CC(=O)O)C(=O)O [citrate salt 1] : > 1000 µg/mL
